Hello, the source for this data is PubChem BioAssay (NCI), in case you need it.

test system: MDA-MB-231 breast; assay: NCI-60 one-dose screen, 48 h; conditions: 10 µM unless noted
About 83,000 compounds went through this panel and 20% of them were active in at least one assay; those are over-represented in the sample as a whole. Activity calls are given as the source filed them. The calls were made as follows: active = growth percent below 10; inactive = the rest.
Possible outcomes: true (1) (active), false (0) (inactive)

compound | targetDesc | class
COc1nc(OC)nc(-c2cc(-c3cc(OC)c(OC)c(OC)c3)no2)n1 | MDA-MB-231 breast | false (0)
Nc1nc2c(c3cnccc13)C(c1cccc(Br)c1)Cc1cnccc1-2 (stereo not given) | MDA-MB-231 breast | true (1)
O=c1c2c(c3ccccc3n1-c1ccccc1)NC(=S)NC2c1ccc(Cl)cc1 (stereo not given) | MDA-MB-231 breast | false (0)
COc1ccc2cn3c4ccc(O)cc4[nH]c(=O)c3c2c1 | MDA-MB-231 breast | false (0)
CCCCCc1ccnc(CC(=O)c2ccc(OC)cc2)c1 | MDA-MB-231 breast | false (0)
Cc1c([C@H](C(Cl)Cl)[C@H](O)[C@H]2C[C@H](C)C(=O)O2)ccc2c1C(=O)[C@H]1[C@H]2C[C@@H](Br)[C@@]23O[C@@H](CO[C@H]2O)CC13C (stereo not given in full) | MDA-MB-231 breast | true (1)
CN1C(=O)C(=Cc2coc3ccc(Br)cc3c2=O)C(=O)N(C)C1=O | MDA-MB-231 breast | false (0)
CCOC(=O)c1c(C)oc2ncnc(Nc3ccc(C(=O)NCCc4ccccc4)cc3)c12 | MDA-MB-231 breast | false (0)
Oc1ccccc1/C=N/N=C\c1ccccc1Cl | MDA-MB-231 breast | false (0)
CCCCCCCCCC[N+](C)(C)N | MDA-MB-231 breast | false (0)
